Measured log10 of CC50 at 48 h of individual entries
Assay method text: Cytotoxicity against african green monkey Vero cells after 48 hrs by MTT assay
Assay type: cell-based
Recorded conditions: chlorocebus sabaeus
Endpoint: log10 of CC50 at 48 h (log10 of the value in µg/mL)

Molecule	log10 of CC50 at 48 h
CC(C)C1=CC2=CC[C@H]3[C@](C)(CO)CCC[C@]3(C)[C@H]2CC1	1.10
CC(C)C1=CC2=CC[C@@H]3[C@](C)(CCC[C@@]3(C)C(=O)O)[C@H]2CC1	1.72
CC(C)=C1CCC2=C(CC[C@H]3[C@](C)(CO)CCC[C@]23C)C1	1.31
CC(C)=C1CCC2=C(CC[C@H]3[C@](C)(C=O)CCC[C@]23C)C1	1.74
COC(=O)[C@]1(C)CCC[C@]2(C)C3=C(CC[C@@H]12)CC(=C(C)C)CC3	1.28
COC(=O)[C@]1(C)CCC[C@@]2(C)[C@H]1CC=C1C=C(C(C)C)CC[C@@H]12 [METHYL ABIETATE]	1.69
CC(C)=C1CCC2=C(CC[C@H]3[C@](C)(C(=O)O)CCC[C@]23C)C1	1.64
CC(C)C1=CC2=CC[C@@H]3[C@](C)(CCC[C@@]3(C)C=O)[C@H]2CC1	1.50
CC[C@]1(O)C[C@H]2CN(CCc3c([nH]c4ccccc34)[C@@](C(=O)OC)(c3cc4c(cc3OC)N(C=O)[C@H]3[C@@](O)(C(=O)OC)[C@H](OC(C)=O)[C@]5(CC)C=CCN6CC[C@]43[C@@H]65)C2)C1	0.04
